# SUBJECT OF TEST: human Cot catalytic domain (30-397 amino acids) (Homo sapiens)
# Construct: Purified recombinant human Cot catalytic domain (30-397 amino acids) was purchased from Cama Biosciences; purchased Cama Biosciences (so in the source)
# TEST SUMMARY: High Throughput Cot Biochemical Assay (KinEASE TR-FRET)
# RUN CONDITIONS: Cot biochemical HTRF (KinEASE TR-FRET) assay; read-out: IC50 HTRF
MEASURED ENDPOINT: pIC50
# log scale: pIC50 equals minus log10 of the concentration in mol/L

{"COMPOUND": "CC(C)(C)N1CCC(n2cc([C@@H](Nc3cc(Cl)c4ncc(C#N)c(NCC5CCC5)c4c3)c3ccccc3)nn2)CC1", "SUBJECT OF TEST": "human Cot catalytic domain (30-397 amino acids) (Homo sapiens)", "RESULT NUMBER": 7.31}

// pIC50 lookup, compound = [2H][C@](Nc1cc(Cl)c2ncc(C#N)c(Nc3cnc(F)c(F)c3)c2c1)(c1ccccc1)c1c[nH]nn1 , result: 7.70

// pIC50 lookup, compound = Cn1nccc1CNc1c(C#N)cnc2c(Cl)cc(N[C@@H](c3ccccc3)c3cn(C4CCN(C(C)(C)C)CC4)nn3)cc12 , result: 6.61

// pIC50 lookup, compound = CC[N+](C)(CC)CCn1cc([C@@H](Nc2cc(Cl)c3ncc(C#N)c(Nc4ccc(Cl)c(Cl)c4F)c3c2)c2ccccc2)nn1 , result: 6.70

// pIC50 lookup, compound = CC(C)(C)N1CCC(n2cc([C@@H](Nc3cc(C#N)c4ncc(C#N)c(Nc5ccc(F)c(Cl)c5)c4c3)c3ccc(Cl)cc3)nn2)CC1 , result: 7.96

// pIC50 lookup, compound = CC[C@@H](Nc1c(C#N)cnc2c(Cl)cc(N[C@@H](c3cccc(C(=O)O)c3)c3c[nH]nn3)cc12)c1ccccc1 , result: 7.62

// pIC50 lookup, compound = CC(C)(C)N1CCC(n2cc([C@@H](Nc3cc(Cl)c4ncc(C#N)c(Nc5c(F)cccc5F)c4c3)c3ccc(Cl)cc3)nn2)CC1 , result: 6.80

// pIC50 lookup, compound = N#Cc1cccc([C@H](Nc2cc(Cl)c3ncc(C#N)c(Nc4ccc(Cl)c(Cl)c4F)c3c2)c2cn(C3COC3)nn2)c1 , result: 7.28

// pIC50 lookup, compound = CC(C)(C)N1CCC(n2cc([C@@H](Nc3cc(Cl)c4ncc(C#N)c(Nc5ccc(Cl)cc5)c4c3)c3ccc(Cl)cc3)nn2)CC1 , result: 6.61

// pIC50 lookup, compound = CC[C@@H](Nc1c(C#N)cnc2c(Cl)cc(N[C@H](c3c[nH]nn3)c3ccccc3F)cc12)c1ccccc1 , result: 7.55

// pIC50 lookup, compound = CCN1CC(n2cc([C@@H](Nc3cc(Cl)c4ncc(C#N)c(Nc5ccc(F)c(Cl)c5)c4c3)c3ccccc3)nn2)CC(F)(F)C1 (stereo partly shown) , result: 7.15

// pIC50 lookup, compound = N#Cc1cnc2c(Cl)cc(N[C@@H](c3ccccc3)c3cn(C4CC4)nn3)cc2c1Nc1ccc(F)c(Cl)c1 , result: 8.15

// pIC50 lookup, compound = CC(C)n1cc([C@@H](Nc2cc(Cl)c3ncc(C#N)c(Nc4ccc(F)c(Cl)c4)c3c2)c2cccc(CNCCN(C)C)c2)nn1 , result: 7.34

###

# Lookup of reported EC50 keyed by entry
# Test system: TNFα production in LPS-stimulated human monocytes
# TEST SUMMARY: Cot Monocyte TNFα Cell Based Assay
# RUN CONDITIONS: Homo sapiens, Monocyte, LPS-stimulated human monocytes, TNFα TR-FRET; read-out: EC50 TNF
Numbers only; they are read as nM.

{"CHEMICAL STRUCTURE": "[2H][C@](Nc1cc(Cl)c2ncc(C#N)c(NCC(C)(C)C)c2c1)(c1cn(C2(CO)COC2)nn1)c1ccccc1Cl", "EC50 [nM]": 286}
{"CHEMICAL STRUCTURE": "CC(C)(C)CNc1c(C#N)cnc2c(C#N)cc(N[C@H](c3cn(C4(c5ccncc5)CC4)nn3)c3ccccc3Cl)cc12", "EC50 [nM]": 22}
{"CHEMICAL STRUCTURE": "CCOC(=O)c1cccc([C@H](Nc2cc(Cl)c3ncc(C#N)c(NCC(C)(C)C)c3c2)c2cn(C3(C(F)(F)F)CC3)nn2)c1F", "EC50 [nM]": 375}
{"CHEMICAL STRUCTURE": "CC(C)(C)CNc1c(C#N)cnc2c(Cl)cc(N[C@@H](c3ccc(F)cc3)c3cn(C4(C(N)=O)CC4)nn3)cc12", "EC50 [nM]": 109}

Let us examine a further case.
The recorded EC50 with TNFα production in LPS-stimulated human monocytes for CC(C)(C)CNc1c(C#N)cnc2c(C#N)cc(N[C@H](c3cn(C4(C#N)CC4)nn3)c3cccc(C#N)c3Cl)cc12 was 141

###

# SUBJECT OF TEST: human Cot catalytic domain (30-397 amino acids) (Homo sapiens, UniProt P41279)
# Construct: Purified recombinant human Cot catalytic domain (30-397 amino acids) was purchased from Cama Biosciences; purchased Cama Biosciences (so in the source)
# Sequence (P41279 30-397): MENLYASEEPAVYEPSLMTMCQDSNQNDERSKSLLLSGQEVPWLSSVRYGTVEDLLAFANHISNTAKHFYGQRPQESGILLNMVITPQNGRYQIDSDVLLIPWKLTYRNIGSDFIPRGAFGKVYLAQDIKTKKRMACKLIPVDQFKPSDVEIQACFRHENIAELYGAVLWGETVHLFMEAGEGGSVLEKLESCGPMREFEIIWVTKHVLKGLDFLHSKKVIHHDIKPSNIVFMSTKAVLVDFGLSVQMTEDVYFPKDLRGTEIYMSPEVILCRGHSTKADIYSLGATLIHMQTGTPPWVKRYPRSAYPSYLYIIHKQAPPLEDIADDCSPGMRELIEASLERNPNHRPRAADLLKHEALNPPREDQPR
# TEST SUMMARY: High Throughput Cot Biochemical Assay (KinEASE TR-FRET)
# RUN CONDITIONS: Cot KinEASE TR-FRET, 400 μM ATP; read-out: IC50 HTRF
Cut-off 0.02 µM on IC50: below means YES, at or above means NO.

{"MOLECULE": "CC(C)(C)CNc1c(C#N)cnc2c(-c3cncnc3)cc(N[C@H](c3cn(C4(C)CC4)nn3)c3ccccc3Cl)cc12", "ASSIGNED LABEL": "NO"}
{"MOLECULE": "CC(C)(C)CNc1c(C#N)cnc2c(Cl)cc(N[C@H](c3cn(C4(C(F)F)CC4)nn3)c3cccc(C#N)c3Cl)cc12", "ASSIGNED LABEL": "NO"}
{"MOLECULE": "CC(C)(C)CNc1c(C#N)cnc2c(C#N)cc(N[C@H](c3cn(C4(C)CC4)nn3)c3ccccc3Cl)cc12", "ASSIGNED LABEL": "YES"}
{"MOLECULE": "CC(=O)N1CCC(n2cc(C(Nc3cc(Cl)c4ncc(C#N)c(Nc5ccc(F)c(Cl)c5)c4c3)c3ccc(F)cc3)nn2)CC1 (stereo not drawn)", "ASSIGNED LABEL": "NO"}
{"MOLECULE": "[2H][C@](Nc1cc(Br)c2ncc(C#N)c(N[C@H](CCC#N)c3ccccc3)c2c1)(c1ccc(F)cc1)c1cn(C2CC2)nn1", "ASSIGNED LABEL": "YES"}

Q: IC50 strictly < 0.02 µM for this molecule? CC(C)(C)CNc1c(C#N)cnc2c(F)cc(N[C@H](c3cn(C(F)(F)C(N)=O)nn3)c3ccccc3Cl)cc12
A: NO

###

# SUBJECT OF TEST: human Cot catalytic domain (30-397 amino acids) (Homo sapiens, UniProt P41279)
# Construct: Purified recombinant human Cot catalytic domain (30-397 amino acids) was purchased from Cama Biosciences; purchased Cama Biosciences (so in the source)
# TEST SUMMARY: High Throughput Cot Biochemical Assay (KinEASE TR-FRET)
# RUN CONDITIONS: Cot KinEASE TR-FRET (HTRF) biochemical assay, 400 μM ATP; read-out: IC50 HTRF
MEASURED ENDPOINT: pIC50
# log scale: pIC50 equals minus log10 of the concentration in mol/L

Below are worked cases with known answers.
{"MOLECULE": "[2H][C@](Nc1cc(C#N)c2ncc(C#N)c(NCC(C)(C)C)c2c1)(c1cccc(C#N)c1)c1cn(C2CC2)nn1", "SUBJECT OF TEST": "human Cot catalytic domain (30-397 amino acids) (Homo sapiens, UniProt P41279)", "pIC50": 9.00}
{"MOLECULE": "[2H]C(Nc1cc(Cl)c2ncc(C#N)c(Nc3cnc(F)c(F)c3)c2c1)(c1ccc(F)cc1)c1cn(C2CC2)cn1 (centres unmarked)", "SUBJECT OF TEST": "human Cot catalytic domain (30-397 amino acids) (Homo sapiens, UniProt P41279)", "pIC50": 6.92}
{"MOLECULE": "[2H][C@@](Nc1cc(Cl)c2ncc(C#N)c(NCC(C)(C)C)c2c1)(c1cn(C2CC2)nn1)c1ccccc1C(F)F", "SUBJECT OF TEST": "human Cot catalytic domain (30-397 amino acids) (Homo sapiens, UniProt P41279)", "pIC50": 7.92}
{"MOLECULE": "[2H][C@](Nc1cc(Cl)c2ncc(C#N)c(NCC(C)(C)CCl)c2c1)(c1ccc(F)cc1)c1cn(C2CC2)nn1", "SUBJECT OF TEST": "human Cot catalytic domain (30-397 amino acids) (Homo sapiens, UniProt P41279)", "pIC50": 8.52}
{"MOLECULE": "[2H][C@](Nc1cc(Cl)c2ncc(C#N)c(NCCc3cccnc3)c2c1)(c1ccc(F)cc1)c1cn(C2CC2)nn1", "SUBJECT OF TEST": "human Cot catalytic domain (30-397 amino acids) (Homo sapiens, UniProt P41279)", "pIC50": 6.36}

// pIC50 lookup, molecule = [2H][C@](Nc1cc(-c2cnn(C)c2)c2ncc(C#N)c(NCC(C)(C)C)c2c1)(c1ccc(F)cc1)c1cn(C2CC2)nn1 , result: 6.22

// pIC50 lookup, molecule = N#Cc1cnc2c(Cl)cc(N[C@@H](c3ccc(F)cc3)c3c[nH]nn3)cc2c1Nc1ccc(F)c(F)c1 , result: 7.30

// pIC50 lookup, molecule = [2H][C@](Nc1cc(Cl)c2ncc(C#N)c(Nc3cnc(F)c(Cl)c3)c2c1)(c1cccc(C#N)c1)c1cn(C2CC2)nn1 , result: 8.40
